B1: CIB1 (parent)
chain: DLSRLVNCLTGEGEDTRLSASEMK

Variants of: B1
protocol-notes: protein stability index of a GFP-peptide fusion (GPS, HEK-293T) (PSI 1-6); higher = more stable;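 further: lentivirally expressed fusions sorted by FACS into six bins by GFP to DsRed ratio, PSI derived from sequencing read proportions per bin multiplied by bin number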
condition-info: c terminus: a fixed tail appended
Recorded protein stability index for the following variants
endpoint-label: protein stability index

• G11I = 3
• S3K = 3.27
• E14H = 3.05
• E22G = 2.81
• T16M = 2.62
• A20S = 2.9
• V6G = 2.36
• C8Y = 2.34
• A20Y = 2.15
• L5D = 4.39
• C8K = 1.43
• S19H = 3.01
• S19D = 3.17
• N7L = 3.85
• L2A = 4.39
• R17F = 2.99
• S21M = 2.98
• S21H = 3.01
• G11L = 2.88
• D1F = 2.77
• E14Q = 3.53
• D15H = 3.49
• L9I = 3.04
• E22N = 3.54
• E12G = 1.18
• S19P = 3.61
• K24V = 2.04
• N7P = 4.6
• L9N = 4.24
• T10A = 3.49
• L18M = 2.49
• S19W = 2.26
• E22K = 4.44
• L2D = 4.32
• L9P = 2.87
• D15R = 2.67
• L18W = 2.78
• D1C = 2.65
• T10I = 2.68
• D15F = 2.32
